All values here come from patent US9216964B2.

- System: hedgehog signaling pathway
- assay.comment: Gli-Luc Reporter Assay for Hh Pathway Inhibition (TMHh-12 cells, pTA-8×Gli-Luc reporter)
- Format: cell-based, Mouse
- stated.conditions: Mus musculus, TMHh12, enzymatic and cellular assays for the inhibition of hedgehog signaling pathways; read-out: IC50 Ranges
IC50 by entry:

compound	IC50
COc1cnnc(-c2cc(Nc3cccc4c3CCN(S(C)(=O)=O)C4)ccc2C)c1	10 to 100 nM
Cc1ncc(Nc2cccc3c2CCN(S(C)(=O)=O)C3)cc1C(=O)Nc1ccccc1	1 to 10 nM
Cc1cnc(-c2cc(Nc3cccc4c3CCN(S(C)(=O)=O)C4)ccc2C)cc1C	0.001 to 1 nM
[O-][S+]1CCC(N2CCc3c(cccc3Nc3ccc(Cl)c(-c4ncc(-c5ccccc5)[nH]4)c3)C2)CC1 (centres unmarked)	0.001 to 1 nM
Cc1ccc(-c2cc(Nc3ncnc4c3CCN(S(C)(=O)=O)C4)ccc2C)nc1	1 to 10 nM
Cc1ccc(Nc2cccc3c2CCN(C2CS(=O)(=O)C2)C3)cc1-c1cc2ccccc2cn1	0.001 to 1 nM
Cc1ccc(Nc2cccc3c2CCN(S(C)(=O)=O)C3)cc1C(=O)Nc1ccccn1	1 to 10 nM
Cc1c(Nc2cccc3c2CCN(S(C)(=O)=O)C3)cccc1-c1ccc(C#N)cc1	100 to 1000 nM

Inquiry: Entry CCC(CC)N1CCC(N2CCc3c(cccc3Nc3ccc(Cl)c(-c4ncc(-c5ccccc5)[nH]4)c3)C2)CC1 : reported IC50 = ?
Reply text: 0.001 to 1 nM

Inquiry: Try this compound next: O=C(O)C1(C(=O)N2CCc3c(cccc3Nc3ccc(Cl)c(-c4ncc(-c5ccccc5)[nH]4)c3)C2)CC1
Reply text: 0.001 to 1 nM

Inquiry: Cc1ccc(Nc2cccc3c2CCN(S(C)(=O)=O)C3)cc1-c1cnc(C#N)cn1 ?
Reply text: 100 to 1000 nM

----------
pIC50: recorded values
- Tested on: hedgehog signaling pathway
- assay.comment: Gli-Luc Reporter Assay for Hh Pathway Inhibition (TMHh-12 cells, pTA-8×Gli-Luc reporter)
- Format: cell-based, Mouse
- stated.conditions: Mus musculus, TMHh12, enzymatic and cellular assays for the inhibition of hedgehog signaling pathways; read-out: IC50 Ranges
pIC50: −log10 of the molar value.

Example entries begin here.
compound	metric.name	result
Cc1ccc(Nc2cccc3c2CCN(C2(CO)CC2)C3)cc1-c1nc2ccccc2[nH]1 [Compound 89]	pIC50	8.00 to 9.00
Cc1ccc(Nc2cccc3c2CCN(C2CCS(=O)(=O)CC2)C3)cc1-c1ccc(F)cn1 [Compound 234]	pIC50	9.00 to 12.00

We next turn to a different compound, shown below.
Inquiry: Returns the measured pIC50 for the input compound. Input: CCN1CCC(N2CCc3c(Nc4ccc(Cl)c(-c5ncc(-c6ccccc6)[nH]5)c4)cccc3C2=O)CC1 [Compound 32]
Reply text: 8.00 to 9.00

----------
- Test system: hedgehog signaling pathway
- assay.comment: Gli-Luc Reporter Assay for Hh Pathway Inhibition (TMHh-12 cells, pTA-8×Gli-Luc reporter)
- Assay type: cell-based, Mouse
- stated.conditions: Mus musculus, TMHh12, enzymatic and cellular assays for the inhibition of hedgehog signaling pathways; read-out: IC50 Ranges
Recorded IC50 by entry

Worked cases, IC50 given:
compound	IC50
Cc1ccc(Nc2cccc3c2CCN(S(C)(=O)=O)C3)cc1-c1ccc(C(=O)NCCO)cc1	100 to 1000 nM
Cc1ccc(Nc2cccc3c2CCN(S(C)(=O)=O)C3)cc1-c1ccc(F)cn1	0.001 to 1 nM
Cc1ccc(Nc2cccc3c2CCN(S(C)(=O)=O)C3)cc1C(=O)Nc1ccc(C(F)(F)F)cc1	0.001 to 1 nM
Cc1ccc(-c2cc(Nc3cccc4c3CCN(CC(F)(F)CO)C4)ccc2C)nc1	0.001 to 1 nM
Cc1ccc(Nc2cccc3c2CCN(C2CCS(=O)(=O)C2)C3)cc1-c1ccc(F)cn1 (stereo not shown)	0.001 to 1 nM

Alright, here's another compound for you.
Inquiry: Quick check: IC50 of Cc1ccc(Nc2cccc3c2CCN(CC(C)(C)F)C3)cc1C(=O)Nc1ccccc1 ?
Reply text: 1 to 10 nM
